Each record here notes measured EC50.
- System: BJ
- Assay Explanation: BJ-TERT-LT-ST fibroblast viability loss – cell-based, RAS-independent, luminescence, dose response (AID 1935);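 note: BJ fibroblasts immortalized with TERT plus LT and ST oncogenes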
- Format: functional
- Particulars: Homo sapiens
The source made the active and inactive calls. Cut-off read from the data, not from the text of the source: actives have a measured EC50 and inactives only a lower limit.

| Molecule | EC50 |
| --- | --- |
| COc1ccc(-n2c(SCC(=O)Nc3ncc(Cl)cc3Cl)nc3ccccc32)cc1 | > 150 µM (inconclusive) |
| N#C/C(N=Nc1ccccc1O)=N\Nc1ccccc1O | 6.76 µM (active) |
| CCCCC(=O)NC(c1ccc(C(C)C)cc1)c1ccc2cccnc2c1O (stereo not drawn) | 1.5 µM (inconclusive) |
| CCOC(=O)COc1ccccc1/C=C\[N+](=O)[O-] | 3.99 µM (inconclusive) |
| O=C(Cc1ccc(N2CCNC2=O)cc1)N1CCCC(Nc2ccc(F)c(F)c2)C1 (stereo not drawn) | 4.14 µM (active) |
| COc1ccc(/C=C(\C#N)c2c[nH]c3ccccc23)cc1 | 1.76 µM (inconclusive) |
| CCCN1C=CC(=C2C(=O)c3ccccc3C2=O)C=C1 | 18.2 µM (active) |
| Cc1c(C(=O)OCC2CCCO2)[nH]c2c1C(=O)CC(c1ccco1)C2 (stereo not drawn) | 23.6 µM (active) |
